- methodSummary: budding yeast growth modifiers under rapamycin – strain BY4716, OD600, 96 h, primary screen (AID 1091); also: test concentration not given here
- measurementConditions: S. cerevisiae BY4716 + rapamycin, higher = more signal, called active from +8 up or from −8 down
Calls of active or inactive are those of the source.
quantityMeasured: z-score

1) O=C(N1CCCCC1)[C@]1(CCS(=O)(=O)c2ccccc2)N=C(c2ccc(OCCCO)cc2)O[C@@H]1c1ccccc1 | 5.25 (inactive)
2) COCCCNC(=O)[C@]1(Cc2ccccc2N=[N+]=[N-])N=C(c2ccc(OCCCO)cc2)O[C@@H]1c1ccccc1CN=[N+]=[N-] | 4.94 (inactive)
3) [N-]=[N+]=NCc1ccccc1C[C@]1(C(=O)N2CCOCC2)N=C(c2ccc(OCCCO)cc2)O[C@H]1c1ccccc1 | 31.6 (active)
4) COCCOC(=O)N1C(=O)[C@@]2(c3cc(C#CC4=CCCCC4)ccc31)[C@H](C(=O)N1CCN(c3ncccn3)CC1)[C@H]1C(=O)O[C@H](c3ccccc3)[C@H](c3ccccc3)N1[C@@H]2c1ccc(OCCO)cc1 | 3.23 (inactive)
5) CS(=O)(=O)CCOC(=O)C1=CC(c2ccc(CO)cc2)=CC(c2cccs2)N(Cc2cccc(OC(F)(F)F)c2)C=C1C(=O)OCCS(C)(=O)=O (stereo not given) | 2.41 (inactive)
6) CC(=O)NCCCC[C@@H]1NC(=O)[C@@H]2C[C@H](C(=O)NCCCCCC[N+](C)(C)C)[C@H](c3cccc(OCCO)c3)N2C1=O | 1.1 (inactive)
7) CCCC[C@@H]1C[C@H]1[C@@H](NC(=O)c1ccccc1)c1ccc(-c2ccccc2)cc1 | 2.7 (inactive)
8) OCCCc1cc[n+](Cc2cccc(OC(F)(F)F)c2)cc1 | 0.71 (inactive)
9) C=CCC(OC(C)=O)[C@@H]1[C@@H](N(Cc2ccc(-c3cccc(C(F)(F)F)c3)o2)C(=O)Cc2ccc(OC)cc2)c2cc(OCCCO)ccc2N1C(=O)Cc1ccc(OC)cc1 (stereo not given in full) | -0.918 (inactive)
10) C=C(CCCC)C(=O)CC[C@H](OC(=O)c1ccccc1-c1ccccc1C(=O)O)c1ccc(CO)o1 | 0.437 (inactive)
11) CCOC(=O)C1=CC[C@@H](c2ccccc2)N(S(=O)(=O)c2ccc(C)cc2)[C@H]1c1ccc(C#N)cc1 | 1.18 (inactive)
12) CCCCCCC#C[Si](O[C@H](c1ccccc1)c1cn([C@H](C)c2ccccc2)nn1)(C(C)C)C(C)C | -0.0401 (inactive)
13) C=C(C)[C@@H]1CC=C(C(O)C2C=CC3C(=O)N(Cc4ccccc4)C(=O)C3N2n2cnnc2)CC1 (stereo not given in full) | 0.112 (inactive)
14) C=C(C(=O)CC[C@H](OC(=O)c1cccnc1)c1ccccc1OCCO)C(C)C | -0.598 (inactive)
15) O=P(NCC1(CC2(c3ccccc3)CO2)CC1)(c1ccccc1)c1ccccc1 (stereo not given) | 0.236 (inactive)
